# EC50 per record follows
tgt: human TLR7 (Homo sapiens)
Construct: host or cells: HEK293 (HEK-Blue hTLR7)
test-details: HEK293-Blue hTLR7 Reporter Assay (QUANTI-BLUE, SEAP readout)
Type: cell-based
experimental-setup: HEK-Blue-hTLR7 cells, 24 hrs treatment, Table 1, B1-B232
Write the number in nM without appending the unit.

Below are worked cases with known answers.
[in] Field request: EC50 | item: CCCCOc1nc(N)c2ncc(Cc3cnc(N4CCNCC4)c(OC)c3)n2n1
[out] 247

[in] Field request: EC50 | item: CC[C@H](O)CCOc1nc(N)c2ncc(Cc3cnc(N4CCNCC4)c(C)c3)n2n1
[out] 2440

Kindly review the next compound as well.
[in] Field request: EC50 | item: CCCCOc1nc(N)c2ncc(Cc3cnc(N4CCCNCC4)c(C)c3)n2n1
[out] 465

----------
tgt: human TLR7 (Homo sapiens)
Construct: host or cells: HEK293 (HEK-Blue hTLR7)
test-details: HEK293-Blue hTLR7 Reporter Assay (QUANTI-BLUE, SEAP readout)
Type: cell-based
experimental-setup: HEK-Blue-hTLR7 cells, 24 hrs treatment, Table 1, B1-B232
# EC50 per record follows

[in] Field request: EC50 | item: Cc1cc(Cc2cnc3c(N)nc(OCCn4ccnc4)nn23)cnc1N1CCNCC1 [Compound B42]
[out] > 10 µM

New cases:
[in] Field request: EC50 | item: COCCOCCOCCOCCOCCOCCOc1nc(N)c2ncc(Cc3cnc(N4CCNCC4)c(C)c3)n2n1 [Compound B120]
[out] > 10 µM

[in] Field request: EC50 | item: CCCCCCCCCCCCCCCCCC(=O)N1CCN(c2ncc(Cc3cnc4c(N)nc(OCCCC)nn34)cc2C)CC1 [Compound B129]
[out] > 10 µM

----------
tgt: human TLR7 (Homo sapiens, UniProt Q9NYK1)
Construct: host or cells: HEK293 (HEK-Blue hTLR7)
Sequence (Q9NYK1 27-1049): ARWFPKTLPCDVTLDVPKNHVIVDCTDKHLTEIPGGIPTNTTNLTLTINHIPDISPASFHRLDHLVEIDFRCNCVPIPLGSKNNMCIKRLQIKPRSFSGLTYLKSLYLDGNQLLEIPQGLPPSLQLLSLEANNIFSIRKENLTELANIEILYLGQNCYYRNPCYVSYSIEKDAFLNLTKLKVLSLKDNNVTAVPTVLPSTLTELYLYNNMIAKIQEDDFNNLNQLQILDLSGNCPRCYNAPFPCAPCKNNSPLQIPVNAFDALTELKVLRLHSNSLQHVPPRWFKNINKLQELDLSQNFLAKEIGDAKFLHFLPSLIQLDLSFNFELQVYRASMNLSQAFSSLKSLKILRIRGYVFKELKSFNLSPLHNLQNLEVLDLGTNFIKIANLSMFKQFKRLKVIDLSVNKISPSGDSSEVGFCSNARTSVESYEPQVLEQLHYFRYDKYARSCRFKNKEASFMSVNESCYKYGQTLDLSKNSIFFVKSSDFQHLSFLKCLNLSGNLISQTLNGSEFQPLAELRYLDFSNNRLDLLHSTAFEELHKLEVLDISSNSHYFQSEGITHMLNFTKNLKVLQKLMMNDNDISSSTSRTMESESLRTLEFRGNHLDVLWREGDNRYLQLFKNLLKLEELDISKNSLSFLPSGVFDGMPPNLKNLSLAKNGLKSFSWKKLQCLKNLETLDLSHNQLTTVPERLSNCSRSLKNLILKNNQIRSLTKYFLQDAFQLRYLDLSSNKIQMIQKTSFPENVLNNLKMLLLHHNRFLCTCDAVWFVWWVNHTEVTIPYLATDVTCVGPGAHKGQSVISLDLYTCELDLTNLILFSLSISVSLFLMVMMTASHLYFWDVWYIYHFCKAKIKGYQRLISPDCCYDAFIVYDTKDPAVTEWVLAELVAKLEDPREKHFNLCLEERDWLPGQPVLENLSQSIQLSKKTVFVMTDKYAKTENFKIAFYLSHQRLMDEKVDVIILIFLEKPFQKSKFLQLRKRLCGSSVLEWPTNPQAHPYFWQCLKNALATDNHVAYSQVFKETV
test-details: HEK293-Blue hTLR7 Reporter Assay (QUANTI-BLUE, SEAP readout)
Assay type: cell-based
experimental-setup: HEK-Blue-hTLR7 cells, 24 hrs treatment, Table 1, B1-B232
observed-property: EC50 (nM)
Write the number in nM without appending the unit.

Below are worked cases with known answers.
[in] Field request: EC50 | item: CCCCOc1nc(N)c2ncc(Cc3cnc(N4CCN(C(=O)[C@@H](N)C(C)C)CC4)c(C)c3)n2n1
[out] 212

[in] Field request: EC50 | item: CCCCOc1nc(N)c2ncc(Cc3cnc(N4CCC(C(=O)N(C)C)CC4)c(C)c3)n2n1
[out] 4380

New cases:
[in] Field request: EC50 | item: CCCCOc1nc(N)c2ncc(Cc3cnc(N4CCNCC4)c(F)c3)n2n1
[out] 345

[in] Field request: EC50 | item: CCC(CC)Oc1nc(N)c2ncc(Cc3cnc(N4CCN(C(=O)CNC)CC4)c(C)c3)n2n1
[out] 28

[in] Field request: EC50 | item: CCC(CC)Oc1nc(N)c2ncc(Cc3cnc(N4CCC(CN(C)C)CC4)c(C)c3)n2n1
[out] 19

[in] Field request: EC50 | item: CCCCOc1nc(N)c2ncc(Cc3cnc(N4CCN(C(=O)C5CNCCN5)CC4)c(C)c3)n2n1 (stereo not drawn)
[out] 600

[in] Field request: EC50 | item: CCCCNc1nc(N)c2ncc(Cc3cnc(N4CCC(CN(C)C)CC4)c(C)c3)n2n1
[out] 17

[in] Field request: EC50 | item: CCC[C@H](C)Oc1nc(N)c2ncc(Cc3cnc(N4CCC(CN(C)C)CC4)c(C)c3)n2n1
[out] 1.9

[in] Field request: EC50 | item: CCCCOc1nc(N)c2ncc(Cc3cnc(N4CC(N)C4)c(C)c3)n2n1
[out] 4980

[in] Field request: EC50 | item: CCC[C@H](C)Oc1nc(N)c2ncc(Cc3cnc(N4CCN(CCO)CC4)c(C)c3)n2n1
[out] 8.1

[in] Field request: EC50 | item: Cc1cc(Cc2cnc3c(N)nc(OCC4CCOC4)nn23)cnc1N1CCNCC1 (stereo not drawn)
[out] 902

[in] Field request: EC50 | item: CCC[C@@H](C)Nc1nc(N)c2ncc(Cc3cnc(N4CCNCC4)c(C)c3)n2n1 (single isomer, unassigned)
[out] 56

[in] Field request: EC50 | item: CCCC(CO)Nc1nc(N)c2ncc(Cc3cnc(N4CCC(CNC)CC4)c(C)c3)n2n1 (stereo not drawn)
[out] 31
